# Test system: Candida albicans
# test name: Minimum concentration required to inhibit the growth of Candida albicans ATCC 64550 was determined
# Format: functional
We begin with a simple list: items and their reported MIC.

molecule	cmp	MIC / µg/mL
CC(C)C1=CC2CC3(C=O)[C@@H]4CC[C@@H](C)[C@H]4CC2(CS[C@@H]2C[C@H](C)N(Cc4ccccc4)C2)C13C(=O)O (some centres not stated)	=	1
C/C=C/C=C\C(=O)O[C@H]1[C@H](O)[C@H](OCC23C[C@@H]4[C@H](C)CC[C@H]4C4(C=O)CC2C=C(C(C)C)C34C(=O)O)O[C@H](C)[C@H]1OC (some centres not stated)	=	0.5
C=C(C)CN1C[C@H](OCC23C[C@@H]4[C@H](C)CC[C@H]4C4(C=O)CC2C=C(C(C)C)C34C(=O)O)O[C@H](C)[C@@H](OC)C1 (some centres not stated)	=	0.03
CC(C)C1=CC2CC3(C=O)[C@@H]4CC[C@@H](C)[C@H]4CC2(CO[C@@H]2C[C@H](C)N(Cc4ccc5c(c4)OCO5)C2)C13C(=O)O (some centres not stated)	=	0.5
OC(Cn1cncn1)(Cn1cncn1)c1ccc(F)cc1F	>	4
CC(C)C1=CC2CC3(C=O)[C@@H]4CC[C@@H](C)[C@H]4CC2(CO[C@@H]2C[C@H](C)N(Cc4ccccc4)C2)C13C(=O)O (some centres not stated)	=	2
COc1ccc(CN2C[C@H](OCC34C[C@@H]5[C@H](C)CC[C@H]5C5(C=O)CC3C=C(C(C)C)C45C(=O)O)C[C@@H]2C)cc1 (some centres not stated)	=	0.5

###

We begin with a simple list: items and their reported MIC.
# Tested on: Candida albicans
# test name: Minimum concentration required to inhibit the growth of Candida albicans ATCC 24433 was determined in the presence of horse serum (20%).
# Type: functional

compound	tgt	MIC (µg/mL)
CC(C)C1=CC2CC3(C=O)[C@@H]4CC[C@@H](C)[C@H]4CC2(CO[C@@H]2C[C@H](C)N(Cc4ccccc4)C2)C13C(=O)O (stereo partly specified)	Candida albicans	4
C/C=C/C=C\C(=O)O[C@H]1[C@H](O)[C@H](OCC23C[C@@H]4[C@H](C)CC[C@H]4C4(C=O)CC2C=C(C(C)C)C34C(=O)O)O[C@H](C)[C@H]1OC (stereo partly specified)	Candida albicans	4
CC(C)C1=CC2CC3(C=O)[C@@H]4CC[C@@H](C)[C@H]4CC2(CS[C@@H]2C[C@H](C)N(Cc4ccccc4)C2)C13C(=O)O (stereo partly specified)	Candida albicans	8
CC(C)C1=CC2CC3(C=O)[C@@H]4CC[C@@H](C)[C@H]4CC2(CO[C@@H]2C[C@H](C)N(Cc4ccc5c(c4)OCO5)C2)C13C(=O)O (stereo partly specified)	Candida albicans	1
COc1ccc(CN2C[C@H](OCC34C[C@@H]5[C@H](C)CC[C@H]5C5(C=O)CC3C=C(C(C)C)C45C(=O)O)C[C@@H]2C)cc1 (stereo partly specified)	Candida albicans	1
C=C(C)CN1C[C@H](OCC23C[C@@H]4[C@H](C)CC[C@H]4C4(C=O)CC2C=C(C(C)C)C34C(=O)O)O[C@H](C)[C@@H](OC)C1 (stereo partly specified)	Candida albicans	0.5

###

# System: Candida tropicalis
# test name: Minimum concentration required to inhibit the growth of Candida tropicalis ATCC750 was determined
# Format: functional
endpoint name: MIC (µg/mL)

compound	quantitative result
C=C(C)CN1C[C@H](OCC23C[C@@H]4[C@H](C)CC[C@H]4C4(C=O)CC2C=C(C(C)C)C34C(=O)O)O[C@H](C)[C@@H](OC)C1 (some centres not stated)	0.13
OC(Cn1cncn1)(Cn1cncn1)c1ccc(F)cc1F	2
CC(C)C1=CC2CC3(C=O)[C@@H]4CC[C@@H](C)[C@H]4CC2(CO[C@@H]2C[C@H](C)N(Cc4ccccc4)C2)C13C(=O)O (some centres not stated)	8
CC(C)C1=CC2CC3(C=O)[C@@H]4CC[C@@H](C)[C@H]4CC2(CO[C@@H]2C[C@H](C)N(Cc4ccc5c(c4)OCO5)C2)C13C(=O)O (some centres not stated)	4
COc1ccc(CN2C[C@H](OCC34C[C@@H]5[C@H](C)CC[C@H]5C5(C=O)CC3C=C(C(C)C)C45C(=O)O)C[C@@H]2C)cc1 (some centres not stated)	4
CC(C)C1=CC2CC3(C=O)[C@@H]4CC[C@@H](C)[C@H]4CC2(CS[C@@H]2C[C@H](C)N(Cc4ccccc4)C2)C13C(=O)O (some centres not stated)	4
C/C=C/C=C\C(=O)O[C@H]1[C@H](O)[C@H](OCC23C[C@@H]4[C@H](C)CC[C@H]4C4(C=O)CC2C=C(C(C)C)C34C(=O)O)O[C@H](C)[C@H]1OC (some centres not stated)	0.5
